Source: the Human Domainome abundance scans (Beltran et al. 2025)

B1: Storkhead-box protein 2, residues 64 to 141; numbered along this chain, Q9P2F5 (parent)
chain: SPISQSQFIPLGEILCLAISAMNSARKPVTQEALMEHLTTCFPGVPTPSQEILRHTLNTLVRERKIYPTPDGYFIVTP

# Variants of: B1
# protocol-details: abundance fitness (aPCA) (normalised: wild type 0, dead -1); higher = more abundant; growth selection in yeast, the domain comes from the species named
# conditions-used: Homo sapiens
Please provide measured abundance fitness for the entries that follow.

Exam item: Quick one: give measured abundance fitness for E63I
Marked response: -0.234

Exam item: Quick one: give measured abundance fitness for G72Y
Marked response: -0.527

Exam item: Quick one: give measured abundance fitness for F74E
Marked response: -0.004

Exam item: Quick one: give measured abundance fitness for T30F
Marked response: -0.074

Exam item: Quick one: give measured abundance fitness for I14Q
Marked response: -0.118

Exam item: Quick one: give measured abundance fitness for K65A
Marked response: -0.134

Exam item: Quick one: give measured abundance fitness for E51P
Marked response: 0.009

Exam item: Quick one: give measured abundance fitness for L11V
Marked response: -0.163

Exam item: Quick one: give measured abundance fitness for I75Q
Marked response: -0.026

Exam item: Quick one: give measured abundance fitness for T47N
Marked response: -0.151

Exam item: Quick one: give measured abundance fitness for Y67I
Marked response: 0.02

Exam item: Quick one: give measured abundance fitness for I52S
Marked response: -0.134

Exam item: Quick one: give measured abundance fitness for P78T
Marked response: -0.191

Exam item: Quick one: give measured abundance fitness for A18F
Marked response: -0.446

Exam item: Quick one: give measured abundance fitness for S49R
Marked response: -0.21

Exam item: Quick one: give measured abundance fitness for L15A
Marked response: -0.034

Exam item: Quick one: give measured abundance fitness for L15N
Marked response: -0.613

Exam item: Quick one: give measured abundance fitness for T47D
Marked response: -0.277

Exam item: Quick one: give measured abundance fitness for V45D
Marked response: -0.207

Exam item: Quick one: give measured abundance fitness for A25V
Marked response: -0.033

Exam item: Quick one: give measured abundance fitness for R54W
Marked response: -0.285

Exam item: Quick one: give measured abundance fitness for S6E
Marked response: -0.046

Exam item: Quick one: give measured abundance fitness for R54I
Marked response: -0.037

Exam item: Quick one: give measured abundance fitness for T77M
Marked response: -0.164

Exam item: Quick one: give measured abundance fitness for T40C
Marked response: 0.002

Exam item: Quick one: give measured abundance fitness for Q50K
Marked response: -0.014

Exam item: Quick one: give measured abundance fitness for F42L
Marked response: -0.08

Exam item: Quick one: give measured abundance fitness for E13H
Marked response: -0.061

Exam item: Quick one: give measured abundance fitness for P46N
Marked response: -0.124

Exam item: Quick one: give measured abundance fitness for R62H
Marked response: -0.051

Exam item: Quick one: give measured abundance fitness for I14M
Marked response: 0.024

Exam item: Quick one: give measured abundance fitness for L53G
Marked response: -0.856

Exam item: Quick one: give measured abundance fitness for A25N
Marked response: -0.068

Exam item: Quick one: give measured abundance fitness for K65S
Marked response: -0.082

Exam item: Quick one: give measured abundance fitness for L15V
Marked response: 0.039

Exam item: Quick one: give measured abundance fitness for T69I
Marked response: -0.298

Exam item: Quick one: give measured abundance fitness for P2L
Marked response: 0.046

Exam item: Quick one: give measured abundance fitness for R62L
Marked response: -0.037

Exam item: Quick one: give measured abundance fitness for Q31I
Marked response: -0.074

Exam item: Quick one: give measured abundance fitness for L60R
Marked response: -1.07

Exam item: Quick one: give measured abundance fitness for D71N
Marked response: -0.012

Exam item: Quick one: give measured abundance fitness for L53P
Marked response: -1.11

Exam item: Quick one: give measured abundance fitness for I9P
Marked response: 0.046

Exam item: Quick one: give measured abundance fitness for G44C
Marked response: -0.046

Exam item: Quick one: give measured abundance fitness for F74K
Marked response: 0.024

Exam item: Quick one: give measured abundance fitness for P78R
Marked response: 0.049
